Please use 1 for Log k' under 0.9 and 0 for everything else, ties included.

                                   compound  cat
0  COc1ccccc1N1CCN(CCCC(=O)c2ccc(F)cc2)CC1 [FLUANISONE]    0

is_below(Log k', 0.9) for CCCCOc1cc(C(=O)NCCN(CC)CC)c2ccccc2n1 [DIBUCAINE] ? 0

Input CCC(=O)O[C@](Cc1ccccc1)(c1ccccc1)[C@H](C)CN(C)C [PROPOXYPHENE] ; condition: Log k' strictly below 0.9. Does it hold? 1

In plain terms, does c1ccc2nc3ccccc3cc2c1 [ACRIDINE] come in under 0.9 for Log k'? 0

Please let me know if Cc1cccc(C)c1NC(=O)C1CCCCN1C (stereo unspecified) [MEPIVACAINE] shows Log k' below 0.9. 1

====

Log k' values by entry
// keep it numeric: no unit symbol after the value

Some solved cases for reference:
>>> print(df.to_string())
                                   compound  value_observed
0  CN(C)CCC(c1ccc(Cl)cc1)c1ccccn1 (stereo not given)           0.273
1  CCN(CC)CCOc1ccc2c(c1)C(=O)c1cc(OCCN(CC)CC)ccc1-2           0.234

Recorded Log k' for Cc1cccc(C)c1NC(=O)C1CCCCN1C (stereo not given) [MEPIVACAINE] , please? 0.051

Could you share which Log k' value was measured for CN(C)CCCN1c2ccccc2Sc2ccccc21 ? 1.351

Which Log k' reading was recorded for the compound c1ccc2nc3ccccc3cc2c1 ? 2.146

====

Reported Log k' values for the following molecules.
Number only, no unit.

>>> print(df.to_string())
                                   molecule  value_observed
0          CN(C)CCCN1c2ccccc2Sc2ccc(Cl)cc21           1.656
1                      c1ccc2nc3ccccc3cc2c1           1.501
2  O=C(NC1CCN(CCc2c[nH]c3ccccc23)CC1)c1ccccc1           0.297
3      CCCCOc1cc(C(=O)NCCN(CC)CC)c2ccccc2n1           1.064
4                                COc1ccccc1           0.332
5  CCN(CC)CCOc1ccc2c(c1)C(=O)c1cc(OCCN(CC)CC)ccc1-2           0.007
6              CN(C)CCCN1c2ccccc2Sc2ccccc21           0.927
7  CC(CN1c2ccccc2Sc2ccccc21)N(C)C (stereo unspecified)           1.172
8  CN(C)CCC=C1c2ccccc2COc2ccccc21 [DOXEPIN]           0.632
9        CN1CCC(=C2c3ccccc3C=Cc3ccccc32)CC1           1.516

Proceeding to the next molecule to report its Log k'.
Given the entry COc1ccccc1N1CCN(CCCC(=O)c2ccc(F)cc2)CC1 , report its measured Log k'. 0.996

====

# assay details: physchem
# experimental conditions: octanol/water
# Description: Partition coefficient (logD) (HPLC)
readout kind: logD
Lab note: record just the number, no unit beside it.

Tell me the measured logD of CC(=O)c1ccc2c(c1)N(CCCN1CCN(CCO)CC1)c1ccccc1S2 [ACETOPHENAZINE] , please. 0.728

====

# experimental conditions: octanol/water
# Description: Partition coefficient (logD, measured by HPLC, log k')
In this section we review reported Log k' values for a set of compounds.
Just the number, please, no unit after it.

In [3]: df
Out[3]:
                                   compound  readout_kind  value_observed
0  CCN(CC)CCOc1ccc2c(c1)C(=O)c1cc(OCCN(CC)CC)ccc1-2 [TILORONE]        Log k'           0.183
1  Cc1cccc(C)c1NC(=O)C1CCCCN1C (stereo unspecified) [MEPIVACAINE]        Log k'          -0.098
2  CN1CCCCC1CCN1c2ccccc2Sc2ccc([S+](C)[O-])cc21 (stereo unspecified) [MESORIDAZINE]        Log k'           1.045
3           c1ccc2nc3ccccc3cc2c1 [ACRIDINE]        Log k'           1.993
4  CC(CN1c2ccccc2Sc2ccccc21)N(C)C (stereo unspecified) [PROMETHAZINE]        Log k'           1.595

Record request: Log k' value, item CN(C)CCCN1c2ccccc2Sc2ccccc21 [PROMAZINE] 1.378

====

Log k' values by entry
// no unit, no text: just the number

Here are 3 molecules together with their reported answers.
In [3]: df
Out[3]:
                                   molecule  readout_kind  value_observed
0  CN(C)CCC(c1ccc(Cl)cc1)c1ccccn1 (centres undefined)        Log k'           0.007
1     CN1CCN(C2=Nc3cc(Cl)ccc3Nc3ccccc32)CC1        Log k'           1.136
2                                Clc1ccccc1        Log k'           1.027

Here is the next item to consider.
If you can, please state the reported Log k' value of Cc1cccc(C)c1NC(=O)C1CCCCN1C (centres undefined) [MEPIVACAINE] . -0.564

====

hey, just use 1.0 if measured Log k' is less than 0.9, otherwise 0.0

Take the compound O=C(NC1CCN(CCc2c[nH]c3ccccc23)CC1)c1ccccc1 and say whether its Log k' is less than 0.9. 1.0

Confirm or reject: Log k' of CCN(CC)CCOc1ccc2c(c1)C(=O)c1cc(OCCN(CC)CC)ccc1-2 lies strictly below 0.9 1.0

====

readout kind: Log k'
Kindly provide the number alone.

In [3]: df
Out[3]:
                           structure_string  readout_kind  value_observed
0  CN1CCN(CCCN2c3ccccc3Sc3ccc(C(F)(F)F)cc32)CC1        Log k'           3.076
1         CN(C)CCCN1c2ccccc2CCc2ccc(Cl)cc21        Log k'           2.072
2      CCCCOc1cc(C(=O)NCCN(CC)CC)c2ccccc2n1        Log k'           1.642

May I ask what Log k' has been recorded for CN(C)CCC=C1c2ccccc2CCc2ccccc21 ? 1.641

====

# assay details: physchem
# experimental conditions: octanol/water, pH 7.4
Documented logD across a set of molecules

>>> df
                                   molecule  value_observed
0  CN(C)CCC=C1c2ccccc2COc2ccccc21 [DOXEPIN]             2.2
1          CN(C)CCCN1c2ccccc2Sc2ccc(Cl)cc21            3.17
2            CN(C)CCC=C1c2ccccc2CCc2ccccc21             2.5
3  CC(CN1c2ccccc2Sc2ccccc21)N(C)C (stereo not given)            2.79

Here's the next entry for you.
// query logD value for entry CCN(CC)CCOc1ccc2c(c1)C(=O)c1cc(OCCN(CC)CC)ccc1-2 1.31

====

readout kind: Log k'
Reply with the value as a number alone.

In [3]: df
Out[3]:
                                   compound  readout_kind  value_observed
0  CN(C)CCC=C1c2ccccc2COc2ccccc21 [DOXEPIN]        Log k'           1.115
1  CN1CCC(=C2c3ccccc3C=Cc3ccccc32)CC1 [CYPROHEPTADINE]        Log k'           1.999
2                      COc1ccccc1 [ANISOLE]        Log k'           0.928
3  CCCCOc1cc(C(=O)NCCN(CC)CC)c2ccccc2n1 [DIBUCAINE]        Log k'           1.651
4  O=C(NC1CCN(CCc2c[nH]c3ccccc23)CC1)c1ccccc1 [INDORAMIN]        Log k'           1.049

Reported Log k' for CC(CN1c2ccccc2Sc2ccccc21)N(C)C (stereo unspecified) [PROMETHAZINE] : what is it? 1.67

What value of Log k' has been recorded for this entry: CN1CCN(C2=Nc3cc(Cl)ccc3Nc3ccccc32)CC1 [CLOZAPINE] 1.734

Requested field: Log k'. Item: CCC(=O)O[C@](Cc1ccccc1)(c1ccccc1)[C@H](C)CN(C)C [PROPOXYPHENE] 1.263

Data request, read-out Log k', for COc1ccccc1N1CCN(CCCC(=O)c2ccc(F)cc2)CC1 [FLUANISONE] 1.669

Suppose we examine the compound Clc1ccccc1 [CHLOROBENZENE] ; what Log k' value has been reported? 1.631

Quick one: Log k' for CN(C)CCCN1c2ccccc2Sc2ccc(Cl)cc21 [CHLORPROMAZINE] ? 2.144

src = ChEMBL document CHEMBL1121794
